Recorded melting point, one value per entry.

Worked cases, melting point given:
c1cnc2cccn2c1: 230 to 231 °C
Cc1nnc(-c2ccc3occ(-c4cccc(OC(F)(F)F)c4)c3c2)o1: 110 to 111 °C
N#CC1=C(C#N)Sc2nc3cc([N+](=O)[O-])c(Cl)cc3nc2S1: 228 to 230 °C

Prompt: Look up melting point: "CCCCc1nccn1Cc1c(F)cccc1Cl"
Completion: 106 to 108 °C

Prompt: Look up melting point: "COC(=O)c1ccccc1S(=O)(=O)NC(=O)Nc1nc(COc2ccccc2)cc(OC)n1"
Completion: 178 to 180 °C

Prompt: Look up melting point: "CC(C)Nc1nccc(C#C[Si](C)(C)C)n1"
Completion: 93 to 94 °C

Prompt: Look up melting point: "CCOC(=O)c1cc(O)cc(O)c1"
Completion: 128 to 130 °C

Prompt: Look up melting point: "c1ccc(COc2ccc3c(ccn3Nc3ccncc3)c2)cc1"
Completion: 143 to 145 °C

###

value.kind: melting point

Worked cases, melting point given:
COc1cc2c(c3c1OC(C)(C)C3)C(c1cccc(N3CCNC3=O)c1)=NC(C)(C)C2: 225 to 227 °C
CCOC(=O)C1=C(C)Nc2ncnc(OC(C)C)c2C1c1ccccc1C(F)(F)F (stereo not drawn): 155 °C
CC(C)n1cc(-c2ccc(C(O)c3ccccc3)cc2)c2c(N)ncnc21 (stereo not drawn): 279 to 281 °C

Prompt: Look up melting point: N#CC(N)c1c(Cl)cccc1Cl (stereo not drawn)
Completion: > 300 °C

Prompt: Look up melting point: "CC(=O)c1cc(CN2CCNC2=O)ccc1O"
Completion: 131 to 133 °C

Prompt: Look up melting point: "O=C(O)c1nc2cc(N3CCN(c4ccc(F)cc4)CC3)c([N+](=O)[O-])cc2[nH]c1=O"
Completion: 236 to 238 °C

###

value.kind: melting point

Worked cases, melting point given:
COC(=O)C1(S(=O)(=O)N2CC=C(c3ccc(Br)c(C)c3)CC2)CCOCC1: 128 to 130 °C
O=C(OCN1C(=O)c2ccccc2C1=O)c1ccccc1N=Nc1ccc(O)c(O)n1: 196 to 201 °C
CC(=O)NC(CCC(=O)c1c(F)cccc1F)c1ccc(Br)cc1 (configuration not stated): 162 to 163 °C

Prompt: Look up melting point: "O=C1CCN(c2c(F)cc([N+](=O)[O-])cc2F)CC1"
Completion: 130 to 132 °C

Prompt: Look up melting point: CC(C)C(C)CNC(=O)c1ccc2c(c1)N(C(C)CN1CCCC1)c1ccccc1S2 (configuration not stated)
Completion: 138 °C

Prompt: Look up melting point: "O=C(O)c1ccc(Oc2nn(Cc3ccccc3)c3ccccc23)o1"
Completion: 162 to 165 °C

Prompt: Look up melting point: "Cc1ccc(-c2ccc3c(c2)C=C(C(=O)Nc2ccc(CNc4ccccc4)cc2)CCO3)cc1"
Completion: 157 to 158 °C

Prompt: Look up melting point: "O=C1NC(=O)C(Cc2cc(O)c(O)c([N+](=O)[O-])c2)C(=O)N1"
Completion: 263 to 266 °C

Prompt: Look up melting point: CC(C#Cc1ccc(C=Cc2ccccn2)o1)N(O)C(N)=O (configuration not stated)
Completion: 175 °C

Prompt: Look up melting point: "COc1ccc(-c2ccc(Cl)cc2)cc1COc1cccc2cc(NS(=O)(=O)C(F)(F)F)ccc12"
Completion: 155 to 157 °C

Prompt: Look up melting point: "Cn1cc(-c2cc(-c3cnc4ccccc4c3)ccn2)n(-c2ccc(C(C)(C)CN)cc2)c1=O"
Completion: 132 °C

Cited source: a melting point compilation (Tetko et al.; mined from patent text by program, amines drawn as free bases though some values may be those of a salt)
